Values compiled from ChEMBL document CHEMBL1157539.

Tested on: Plasmodium falciparum
assay-remarks: GSK_TCMDC: Inhibition of Plasmodium falciparum Dd2 in whole red blood cells, using parasite LDH activity as an index of growth. Test compounds present at 2uM
Assay type: functional
Let's look at some compounds and their measured Inhibition.

{"compound": "CC(Sc1nc(-c2ccccc2)c(-c2ccccc2)o1)C(=O)NC1CC1 (stereo not given)", "Inhibition [%]": 91}
{"compound": "Cl.NC(=O)c1cccc(Nc2nccc(Nc3ccc(Oc4ccc5ccccc5c4)cc3)n2)c1", "Inhibition [%]": 31}
{"compound": "Cc1nc(N)nc(N)c1C#CC1CCCC1", "Inhibition [%]": 2}
{"compound": "O=C1C(c2ccccc2)=C(Nc2ccc(Cl)cc2)c2ccccc21", "Inhibition [%]": 59}
{"compound": "COc1cccc2c(C)cc(NCc3ccc(Cl)cc3)nc12", "Inhibition [%]": 5}
{"compound": "O=C(CNC(=O)c1ccc(O)cc1)Nc1cccc(-c2cccc(-c3nc4cc(C(F)(F)F)ccc4[nH]3)c2)c1", "Inhibition [%]": 28}
{"compound": "COc1cc2nc(-c3ccccc3)nc(N3CCN(CC(=O)N4CCCC4)CC3)c2cc1OC", "Inhibition [%]": 70}
{"compound": "CN(C)CCOc1cc(NC(=O)Nc2ccc(-c3ccncc3)c3ccccc23)ccc1I", "Inhibition [%]": 46}
{"compound": "COc1cc2c(cc1S(=O)(=O)c1ccc(NC(=O)c3cc4ccccc4s3)cc1)CCN(C)CC2", "Inhibition [%]": 88}
{"compound": "O=C(Nc1ccc(N2CCCN(Cc3cccc(F)c3)CC2)cc1)c1cccs1.O=C(O)C(F)(F)F", "Inhibition [%]": 96}
